Data credit: patent US20260001875A1

# run_description: Pharmacokinetic study in mice (plasma, brain, CSF)
# Assay type: in vivo, mouse
# assay_context: male, C57BL/6, mouse, ip, brain, intraperitoneal 30 mg/Kg single dose, read-out: metabolic half-life (converted)
measured_metric: half-life

[[record]]
compound = "CNc1nc(Nc2ccc(C(=O)N3CCN(C[C@H]4CC[C@H](CSC(C)(C)[C@H](NC(=O)C5(F)CC5)C(=O)N5C[C@H](O)CC5C(=O)NCc5ccc(-c6scnc6C)cc5)CC4)CC3)cc2OC)ncc1Cl (stereo partly shown)"
measured_metric = "half-life"
observed_value = "2.79 h"


* * *

molecules and their reported DC50
# assay_system: LRRK2^G2019S (Mus musculus, UniProt Q5S006, G2019S)
# Construct: endogenous in cells; host or cells: LRRK2[G2019S] mouse embryonic fibroblasts (MEFs)
# Sequence (Q5S006 whole entry G2019S): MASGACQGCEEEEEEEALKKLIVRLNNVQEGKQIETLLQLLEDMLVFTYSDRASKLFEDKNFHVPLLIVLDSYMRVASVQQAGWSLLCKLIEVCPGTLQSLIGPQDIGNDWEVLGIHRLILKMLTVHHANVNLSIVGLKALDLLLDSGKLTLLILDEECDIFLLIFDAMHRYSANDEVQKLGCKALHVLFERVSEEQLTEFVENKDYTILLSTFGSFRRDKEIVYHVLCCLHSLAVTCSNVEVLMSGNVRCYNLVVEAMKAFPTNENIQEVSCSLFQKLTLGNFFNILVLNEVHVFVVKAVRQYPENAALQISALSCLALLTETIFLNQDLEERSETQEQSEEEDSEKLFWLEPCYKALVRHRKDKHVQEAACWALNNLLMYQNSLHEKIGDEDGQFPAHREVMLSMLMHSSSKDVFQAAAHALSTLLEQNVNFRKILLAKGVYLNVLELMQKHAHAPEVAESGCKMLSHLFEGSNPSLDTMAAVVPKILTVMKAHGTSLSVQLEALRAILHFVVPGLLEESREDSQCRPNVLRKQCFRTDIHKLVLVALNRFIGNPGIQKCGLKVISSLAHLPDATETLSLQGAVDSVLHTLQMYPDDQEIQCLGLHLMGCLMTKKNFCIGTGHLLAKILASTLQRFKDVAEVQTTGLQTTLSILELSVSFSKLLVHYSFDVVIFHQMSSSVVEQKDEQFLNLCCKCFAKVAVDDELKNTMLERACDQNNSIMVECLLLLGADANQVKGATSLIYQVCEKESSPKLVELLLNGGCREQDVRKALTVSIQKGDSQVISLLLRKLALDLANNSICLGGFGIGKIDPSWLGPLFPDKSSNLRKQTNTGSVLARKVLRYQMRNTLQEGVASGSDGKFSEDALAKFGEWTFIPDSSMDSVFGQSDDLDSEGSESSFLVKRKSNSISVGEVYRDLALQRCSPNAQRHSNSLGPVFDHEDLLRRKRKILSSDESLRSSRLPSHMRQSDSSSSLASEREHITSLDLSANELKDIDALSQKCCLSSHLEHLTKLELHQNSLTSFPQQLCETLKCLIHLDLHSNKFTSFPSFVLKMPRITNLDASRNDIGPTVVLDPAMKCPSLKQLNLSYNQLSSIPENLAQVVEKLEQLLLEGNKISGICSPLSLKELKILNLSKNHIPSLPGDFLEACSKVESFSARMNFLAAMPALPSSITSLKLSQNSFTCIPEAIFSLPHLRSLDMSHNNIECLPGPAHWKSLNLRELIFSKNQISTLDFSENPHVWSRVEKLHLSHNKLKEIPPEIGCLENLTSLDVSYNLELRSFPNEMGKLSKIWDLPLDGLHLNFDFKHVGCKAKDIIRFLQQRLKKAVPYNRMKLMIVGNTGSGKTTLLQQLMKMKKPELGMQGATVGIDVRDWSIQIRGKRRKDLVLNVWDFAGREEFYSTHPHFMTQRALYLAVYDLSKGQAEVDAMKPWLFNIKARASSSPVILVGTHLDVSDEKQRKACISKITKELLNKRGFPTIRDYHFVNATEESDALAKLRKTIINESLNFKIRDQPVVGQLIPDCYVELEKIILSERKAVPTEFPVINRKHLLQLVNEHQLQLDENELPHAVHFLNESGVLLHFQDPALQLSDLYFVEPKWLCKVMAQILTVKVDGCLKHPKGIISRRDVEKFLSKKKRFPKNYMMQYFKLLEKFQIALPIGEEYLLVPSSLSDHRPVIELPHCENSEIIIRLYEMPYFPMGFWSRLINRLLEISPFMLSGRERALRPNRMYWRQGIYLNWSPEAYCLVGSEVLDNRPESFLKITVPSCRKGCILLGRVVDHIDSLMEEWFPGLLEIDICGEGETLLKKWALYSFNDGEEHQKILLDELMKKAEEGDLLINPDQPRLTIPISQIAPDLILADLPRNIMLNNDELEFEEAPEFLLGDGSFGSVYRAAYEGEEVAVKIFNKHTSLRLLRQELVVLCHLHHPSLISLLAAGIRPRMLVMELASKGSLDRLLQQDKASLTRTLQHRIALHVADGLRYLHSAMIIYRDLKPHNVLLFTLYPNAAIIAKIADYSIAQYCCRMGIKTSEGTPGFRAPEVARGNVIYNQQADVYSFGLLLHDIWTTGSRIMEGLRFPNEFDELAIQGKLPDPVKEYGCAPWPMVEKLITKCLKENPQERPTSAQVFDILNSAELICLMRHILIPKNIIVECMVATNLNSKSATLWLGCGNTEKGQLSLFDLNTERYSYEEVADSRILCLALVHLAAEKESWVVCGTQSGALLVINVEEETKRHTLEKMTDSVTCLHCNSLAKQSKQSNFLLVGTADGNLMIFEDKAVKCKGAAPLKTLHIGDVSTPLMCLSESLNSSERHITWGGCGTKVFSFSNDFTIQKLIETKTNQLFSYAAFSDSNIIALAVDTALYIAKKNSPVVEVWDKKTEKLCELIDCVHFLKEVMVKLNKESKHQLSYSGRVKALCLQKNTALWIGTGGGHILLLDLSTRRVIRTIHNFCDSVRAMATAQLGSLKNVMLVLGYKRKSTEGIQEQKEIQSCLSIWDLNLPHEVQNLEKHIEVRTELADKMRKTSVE
# run_description: Western blot LRRK2 degradation in LRRK2^G2019S MEFs
# Assay type: cell-based
# assay_context: dose response, 4 h treatment
measured_metric: DC50 (nM)

[[record]]
molecule = "CNc1nc(Nc2ccc(C(=O)N3CCN(C[C@H]4CC[C@H](CSC(C)(C)[C@H](NC(=O)C5(F)CC5)C(=O)N5C[C@H](O)CC5C(=O)NCc5ccc(-c6scnc6C)cc5)CC4)CC3)cc2OC)ncc1Cl (stereo partly drawn)"
assay_system = "LRRK2^G2019S (Mus musculus, UniProt Q5S006, G2019S)"
measured_metric = "DC50"
unit_annotation = "nM"
observed_value = 14

[[record]]
molecule = "CNc1nc(Nc2ccc(OC3CCN(C[C@H]4CC[C@H](CSC(C)(C)C(NC(=O)C5(F)CC5)C(=O)N5C[C@H](O)C[C@H]5C(=O)NCc5ccc(-c6scnc6C)cc5)CC4)CC3)cc2OC)ncc1Cl (stereo partly drawn)"
assay_system = "LRRK2^G2019S (Mus musculus, UniProt Q5S006, G2019S)"
measured_metric = "DC50"
unit_annotation = "nM"
observed_value = 22

[[record]]
molecule = "CNc1nc(Nc2ccc(C(=O)N3CCN(C[C@H]4CC[C@@H](CSC(C)(C)[C@H](NC(=O)C5(F)CC5)C(=O)N5C[C@H](O)CC5C(=O)NCc5ccc(-c6scnc6C)cc5)CC4)CC3)cc2OC)ncc1Cl (stereo partly drawn)"
assay_system = "LRRK2^G2019S (Mus musculus, UniProt Q5S006, G2019S)"
measured_metric = "DC50"
unit_annotation = "nM"
observed_value = 7


* * *

# run_description: Solubility
# Type: physicochemical
# assay_context: FeSSIF (fed state simulated intestinal fluid), fessif; Fed State Simulated Intestinal Fluid pH 5.8; read-out: Solubility in FeSSIF (pH 5.8)
measured_metric: solubility (µM)

[[record]]
compound = "CNc1nc(Nc2ccc(C(=O)N3CCN(C[C@H]4CC[C@H](CSC(C)(C)[C@H](NC(=O)C5(F)CC5)C(=O)N5C[C@H](O)CC5C(=O)NCc5ccc(-c6scnc6C)cc5)CC4)CC3)cc2OC)ncc1Cl (stereo partly shown) [XL01126]"
measured_metric = "solubility"
observed_value = 26.1


* * *

# assay_system: LRRK2 (Homo sapiens)
# run_description: NanoBRET LRRK2 target engagement in HEK293 cells
# Format: binding
# Design: host or cells: HEK293
# assay_context: live HEK293 cells; read-out: IC50 LRRK2 tracer displacement
pIC50: −log10 of the molar value.
measured_metric: pIC50

[[record]]
compound = "CNc1nc(Nc2ccc(C(=O)N3CCN(C[C@H]4CC[C@@H](CSC(C)(C)[C@H](NC(=O)C5(F)CC5)C(=O)N5C[C@H](O)CC5C(=O)NCc5ccc(-c6scnc6C)cc5)CC4)CC3)cc2OC)ncc1Cl (stereo partly drawn) [XL01134]"
observed_value = 5.66

[[record]]
compound = "CNc1nc(Nc2ccc(C(=O)N3CCN(CCOCCOCCSC(C)(C)[C@H](NC(=O)C4(F)CC4)C(=O)N4C[C@H](O)C[C@H]4C(=O)NCc4ccc(-c5scnc5C)cc4)CC3)cc2OC)ncc1Cl [SD75]"
observed_value = 5.74

[[record]]
compound = "CNc1nc(Nc2ccc(C(=O)N3CCN(C[C@H]4CC[C@H](CSC(C)(C)[C@H](NC(=O)C5(F)CC5)C(=O)N5C[C@H](O)CC5C(=O)NCc5ccc(-c6scnc6C)cc5)CC4)CC3)cc2OC)ncc1Cl (stereo partly drawn) [XL01126]"
observed_value = 5.85


* * *

compounds and their reported Dmax
# assay_system: LRRK2^G2019S (Mus musculus, UniProt Q5S006, G2019S)
# Construct: endogenous in cells; host or cells: LRRK2[G2019S] mouse embryonic fibroblasts (MEFs)
# run_description: Western blot LRRK2 degradation in LRRK2^G2019S MEFs
# Format: cell-based
# assay_context: dose response, 4 h treatment; read-out: Dmax on G2019S MEFs
measured_metric: Dmax (%)

[[record]]
compound = "CNc1nc(Nc2ccc(C(=O)N3CCN(C[C@H]4CC[C@H](CSC(C)(C)[C@H](NC(=O)C5(F)CC5)C(=O)N5C[C@H](O)CC5C(=O)N[C@@H](C)c5ccc(-c6scnc6C)cc5)CC4)CC3)cc2OC)ncc1Cl (stereo partly drawn)"
observed_value = 90

[[record]]
compound = "CNc1nc(Nc2ccc(C(=O)N3CCN(C[C@H]4CC[C@H](CSC(C)(C)[C@H](NC(=O)C5(F)CC5)C(=O)N5C[C@H](O)CC5C(=O)NCc5ccc(-c6scnc6C)cc5F)CC4)CC3)cc2OC)ncc1Cl (stereo partly drawn)"
observed_value = 79

[[record]]
compound = "CNc1nc(Nc2ccc(C(=O)N3CCN(C[C@H]4CC[C@@H](CSC(C)(C)[C@H](NC(=O)C5(F)CC5)C(=O)N5C[C@H](O)CC5C(=O)N[C@@H](C)c5ccc(-c6scnc6C)cc5)CC4)CC3)cc2OC)ncc1Cl (stereo partly drawn)"
observed_value = 78.5


* * *

# System: Rab10 pThr73
# run_description: Rab10 Thr73 dephosphorylation (immunoblot) in WT MEFs
# Type: cell-based, mouse
# assay_context: Mus musculus, 1 μM/24 h treatment; read-out: pRab10 inhibited in WT MEFs
molecules and their reported inhibition at 1 µM
measured_metric: inhibition at 1 µM

[[record]]
molecule = "CNc1nc(Nc2ccc(C(=O)N3CCN(C[C@H]4CC[C@@H](CSC(C)(C)[C@H](NC(=O)C5(F)CC5)C(=O)N5C[C@H](O)CC5C(=O)N[C@@H](C)c5ccc(-c6scnc6C)cc5)CC4)CC3)cc2OC)ncc1Cl (stereo partly shown)"
observed_value = "80 to 100%"

[[record]]
molecule = "CNc1nc(Nc2ccc(C(=O)N3CCN(Cc4ccc(CSC(C)(C)[C@H](NC(=O)C5(F)CC5)C(=O)N5C[C@H](O)C[C@H]5C(=O)NCc5ccc(-c6scnc6C)cc5)cc4)CC3)cc2OC)ncc1C(F)(F)F [XL01070B]"
observed_value = "30 to 100%"

[[record]]
molecule = "CNc1nc(Nc2ccc(C(=O)N3CCN(Cc4cccc(CSC(C)(C)[C@H](NC(=O)C5(F)CC5)C(=O)N5C[C@H](O)C[C@H]5C(=O)NCc5ccc(-c6scnc6C)cc5)c4)CC3)cc2OC)ncc1Cl"
observed_value = "30 to 100%"

[[record]]
molecule = "CNc1nc(Nc2ccc(C(=O)N3CCN(CCCOc4cc(-c5scnc5C)ccc4CNC(=O)[C@@H]4C[C@@H](O)CN4C(=O)[C@@H](NC(=O)C4(F)CC4)C(C)(C)C)CC3)cc2OC)ncc1Cl"
observed_value = "30 to 90%"

[[record]]
molecule = "CNc1nc(Nc2ccc(C(=O)N3CCN(CCOCCOCCOc4cc(-c5scnc5C)ccc4CNC(=O)[C@@H]4C[C@@H](O)CN4C(=O)[C@@H](NC(=O)C4(F)CC4)C(C)(C)C)CC3)cc2OC)ncc1Cl"
observed_value = "30 to 90%"

[[record]]
molecule = "CNc1nc(Nc2ccc(C(=O)N3CCN(Cc4ccc(CSC(C)(C)[C@H](NC(=O)C5(F)CC5)C(=O)N5C[C@H](O)C[C@H]5C(=O)NCc5ccc(-c6scnc6C)c(F)c5)cc4)CC3)cc2OC)ncc1Cl"
observed_value = "30 to 100%"

[[record]]
molecule = "CNc1nc(Nc2ccc(C(=O)N3CCN(Cc4ccc(CSC(C)(C)[C@H](NC(=O)C5(F)CC5)C(=O)N5C[C@H](O)C[C@H]5C(=O)NCc5ccc(-c6scnc6C)cc5)cc4)CC3)cc2OC)ncc1Cl"
observed_value = "30 to 90%"

[[record]]
molecule = "CNc1nc(Nc2ccc(C(=O)N3CCN(CCOCCOCCN4CCN(c5ccc6c(c5)C(=O)N(C5CCC(=O)NC5=O)C6=O)CC4)CC3)cc2OC)ncc1Cl (stereo not shown)"
observed_value = "30 to 90%"

[[record]]
molecule = "CNc1nc(Nc2ccc(C(=O)N3CCN(CCOCCOCCOc4cccc(C(=O)c5csc(C6CCCN6C(=O)[C@@H](NC(=O)[C@H](C)NC)C6CCCCC6)n5)c4)CC3)cc2OC)ncc1Cl (stereo partly shown)"
observed_value = "30 to 90%"

[[record]]
molecule = "CNc1nc(Nc2ccc(C(=O)N3CCN(CCOCCOCCSC(C)(C)[C@@H](NC(=O)C4(F)CC4)C(=O)N4C[C@H](O)C[C@H]4C(=O)NCc4ccc(-c5scnc5C)cc4)CC3)cc2OC)ncc1C(F)(F)F [XL01078B]"
observed_value = "30 to 100%"

